- Target: recombinant full-length WRN protein (1-1432) (Homo sapiens)
- Construct: recombinant full-length WRN protein (1-1432)
- Sequence (Q14191 whole entry): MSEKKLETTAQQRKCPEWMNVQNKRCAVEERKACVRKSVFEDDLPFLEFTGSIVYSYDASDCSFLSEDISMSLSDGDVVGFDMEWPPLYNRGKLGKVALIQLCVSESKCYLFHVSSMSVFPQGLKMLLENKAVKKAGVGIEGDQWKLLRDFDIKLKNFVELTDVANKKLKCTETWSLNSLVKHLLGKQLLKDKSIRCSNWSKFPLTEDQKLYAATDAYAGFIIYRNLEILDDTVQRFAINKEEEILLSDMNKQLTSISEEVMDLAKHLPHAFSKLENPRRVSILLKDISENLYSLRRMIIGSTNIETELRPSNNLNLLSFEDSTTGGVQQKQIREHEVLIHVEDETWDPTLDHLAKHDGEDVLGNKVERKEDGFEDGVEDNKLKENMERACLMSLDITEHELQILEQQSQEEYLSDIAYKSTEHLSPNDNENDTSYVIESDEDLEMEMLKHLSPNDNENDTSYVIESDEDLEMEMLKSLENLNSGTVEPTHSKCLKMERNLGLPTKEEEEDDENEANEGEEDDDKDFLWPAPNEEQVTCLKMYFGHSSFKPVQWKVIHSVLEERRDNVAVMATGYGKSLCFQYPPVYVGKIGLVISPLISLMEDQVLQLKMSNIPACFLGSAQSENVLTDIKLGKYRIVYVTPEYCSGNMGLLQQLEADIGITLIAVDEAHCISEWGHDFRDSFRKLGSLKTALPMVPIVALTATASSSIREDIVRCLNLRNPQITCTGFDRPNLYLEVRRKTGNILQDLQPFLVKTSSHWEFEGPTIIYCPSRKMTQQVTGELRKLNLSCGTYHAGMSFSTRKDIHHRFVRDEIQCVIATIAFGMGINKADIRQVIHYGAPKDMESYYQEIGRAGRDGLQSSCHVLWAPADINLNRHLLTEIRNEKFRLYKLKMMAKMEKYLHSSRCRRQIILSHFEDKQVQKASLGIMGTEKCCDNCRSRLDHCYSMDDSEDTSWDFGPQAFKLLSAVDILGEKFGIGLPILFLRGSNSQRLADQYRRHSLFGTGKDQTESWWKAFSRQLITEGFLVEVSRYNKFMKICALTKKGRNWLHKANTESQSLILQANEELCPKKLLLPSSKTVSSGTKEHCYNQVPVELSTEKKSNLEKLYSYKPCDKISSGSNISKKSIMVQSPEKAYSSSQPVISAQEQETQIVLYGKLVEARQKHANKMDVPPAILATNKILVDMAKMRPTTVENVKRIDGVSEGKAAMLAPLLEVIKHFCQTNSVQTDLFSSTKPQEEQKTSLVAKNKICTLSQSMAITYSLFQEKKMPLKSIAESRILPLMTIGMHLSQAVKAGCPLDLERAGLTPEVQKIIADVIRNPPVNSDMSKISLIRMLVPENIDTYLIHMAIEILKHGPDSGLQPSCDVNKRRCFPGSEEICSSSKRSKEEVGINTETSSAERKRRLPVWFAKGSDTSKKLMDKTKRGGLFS
- Experimental protocol: WRN unwinding activity, fluorogenic 384-well assay (Example A)
- Format: biochemical
- Condition set: WRN unwinding activity, 4 hr; Table 2; read-out: 4 hr UNW pIC50 (converted)
Experimental readout: IC50 (nM)

(P) Cc1nc2cc(S(=O)(=O)N(C)c3ccc([C@H]4CCC[C@@H](C(=O)Nc5ccc(C(F)(F)F)cc5F)[C@@H]4C(=O)O)cc3Br)ccc2n1C [Example 166]
(Q) CN(c1ccc([C@H]2CCC[C@@H](C(=O)Nc3ccc(C(F)(F)F)cc3F)[C@@H]2C(=O)O)cc1)S(=O)(=O)c1ccc2occc2c1 [Example 93]
(R) Cc1nc2cc(S(=O)(=O)N(C)c3ccc([C@H]4C[C@H](N5CC6(F)CC5C6)C[C@@H](C(=O)Nc5ccc(C(F)(F)F)cc5F)[C@@H]4C(=O)O)cc3)ccc2n1C (relative stereo) [Example 400]
Which order do the above compounds take when sorted by rising IC50? Smallest first. Note for the reader: the ranking is given by listing the labels in the order requested.
Q, P, R
(Q: 2.51 nM, P: 7.94 nM, R: 20 nM)
